target-desc: dK50dM51 E19N (UniProt P09012 10-89, E19N;del50-51)
test-protocol: fluorescence polarization
measured-quantity: Kd

[
  {
    "binder": "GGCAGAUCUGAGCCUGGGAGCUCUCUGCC (structured_RNA) [TAR RNA]",
    "measured-quantity": "Kd",
    "result": "27.8 µM"
  }
]
